Measurement target: human GABAρ1 (Homo sapiens)
Construct: expressed in transfected cells; host or cells: Xenopus laevis oocytes injected with in vitro transcribed mRNA
Sequence (P24046 22-479): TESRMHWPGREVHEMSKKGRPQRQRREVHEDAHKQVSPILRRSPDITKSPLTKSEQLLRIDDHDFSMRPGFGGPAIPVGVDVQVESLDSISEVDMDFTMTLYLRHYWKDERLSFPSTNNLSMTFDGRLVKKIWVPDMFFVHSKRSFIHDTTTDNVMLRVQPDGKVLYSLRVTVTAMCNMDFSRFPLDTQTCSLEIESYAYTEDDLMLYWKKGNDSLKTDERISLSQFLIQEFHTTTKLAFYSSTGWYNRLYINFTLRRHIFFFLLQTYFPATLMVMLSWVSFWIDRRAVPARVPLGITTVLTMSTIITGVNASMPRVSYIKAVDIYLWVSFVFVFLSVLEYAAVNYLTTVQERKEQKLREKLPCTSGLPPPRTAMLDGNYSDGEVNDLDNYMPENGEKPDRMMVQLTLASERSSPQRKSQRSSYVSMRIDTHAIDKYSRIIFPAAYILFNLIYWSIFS
Procedure text: Inhibition of GABA currents by co-application of 3 µM GABA and analogue, two-microelectrode voltage clamp in X. laevis oocytes
Assay type: cell-based
Test conditions: maximum inhibition compared with full inhibition (100%)
Test readout: extent of inhibition of GABA currents at high concentrations

COc1cc(CCN)ccc1O [3-MT, 3-Methoxytyramine] :: Full inhibition
NCCc1ccc(O)c(O)c1 [DA, Dopamine] :: Full inhibition

----------
Measurement target: human GABAρ1 (Homo sapiens)
Construct: expressed in transfected cells; host or cells: Xenopus laevis oocytes injected with in vitro transcribed mRNA
Procedure text: Inhibition of GABA currents by co-application of 3 µM GABA and analogue, two-microelectrode voltage clamp in X. laevis oocytes;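 also: oocytes expressing human GABAρ1 from injected mRNA, recorded 1–5 days later, clamped at −60 mV, room temperature, compounds bath-applied at pH 7.4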
Type: cell-based
Test conditions: Table 1
Test readout: GABA ρ1 (Human) Antagonist: Full or partial

Example entries begin here.
COc1cc(CC(=O)O)ccc1O :: partial
COc1cc(CCN)ccc1O :: full
O=C(O)Cc1ccc(O)c(O)c1 [DOPAC, 3,4-Dihydroxyphenylacetic acid] :: partial
NCCCCO :: full

Give me measured GABA ρ1 (Human) Antagonist: Full or partial, please, for this compound: NCCc1ccccc1
full

----------
Measurement target: LGC-53 (Caenorhabditis elegans);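 also: LGC-53 expressed in frog oocytes, two-electrode voltage clamp at −60 mV, analogues bath-applied, full or partial agonism judged by maximal effect against DA applied before and after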
Sequence (H2KYN9 entry or part of it): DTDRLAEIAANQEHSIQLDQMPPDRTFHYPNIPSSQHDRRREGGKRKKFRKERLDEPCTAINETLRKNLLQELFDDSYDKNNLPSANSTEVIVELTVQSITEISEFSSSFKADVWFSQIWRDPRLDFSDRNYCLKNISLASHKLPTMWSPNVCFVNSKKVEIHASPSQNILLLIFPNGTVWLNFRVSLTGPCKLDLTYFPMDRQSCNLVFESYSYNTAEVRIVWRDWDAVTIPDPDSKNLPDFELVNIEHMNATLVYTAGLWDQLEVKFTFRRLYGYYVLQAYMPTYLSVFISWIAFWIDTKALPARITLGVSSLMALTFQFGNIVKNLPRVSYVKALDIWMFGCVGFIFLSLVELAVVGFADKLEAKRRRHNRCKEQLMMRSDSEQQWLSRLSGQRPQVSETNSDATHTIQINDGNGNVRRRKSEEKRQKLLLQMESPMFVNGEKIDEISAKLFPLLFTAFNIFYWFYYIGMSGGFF
Procedure text: cell-based
Assay type: cell-based
Test conditions: LGC-53 EC50 (mM)
Field: EC50. Provide a value for each of the compounds that follow.
Give the number; mM is assumed, so skip it.

Specify measured EC50 for NCCc1ccc(O)c(O)c1 .
0.0042

Write down EC50 measured for item CNC[C@H](O)c1ccc(O)c(O)c1
3.8
